Values from ChEMBL document CHEMBL1777798

# Tested on: Nakaseomyces glabratus
# Procedure Summary: Fungal activity against Candida glabrata BG2 assessed as concentration required to less than 0.1% survival of organism after 2 hrs
# Type: functional
# Test Parameters: BG2, 2 h
Record form. Attribute: MFC. Fill in for each entry.
Numbers only, in µM.

These recorded examples may help you get a feel for the data.
>>> value_measured("N=C(N)Nc1cccc(SCc2ccc(Cl)cc2)c1")
100
>>> value_measured("N=C(N)NC(=N)Nc1cccc(SCc2ccc(Cl)cc2)c1")
50
>>> value_measured("Clc1ccc(CSc2ccccc2N=C(NC2CCCCC2)NC2CCCCC2)cc1")
50
>>> value_measured("N=C(N)Nc1ccccc1SCc1cc(Br)cc(Br)c1")
50

Lab book: MFC of `Brc1cc(Br)cc(CSc2ccccc2N=C(NC2CCCCC2)NC2CCCCC2)c1` noted as 50

----------
# Procedure Summary: Toxicity in glp-4delta sek-1 delta double mutant Caenorhabditis elegans model assessed as survival at 50 uM after 11 days relative to day 0
# Format: organism-based
# Test Parameters: in vivo
Exercise: for every item that follows, state its recorded survival at 264 h, 50 µM.

>>> value_measured("Cl.N=C(N)NC(=N)Nc1cccc(SCc2cc(Br)cc(Br)c2)c1")
"5%"
>>> value_measured("Clc1ccc(CSc2cccc(N=C(NC3CCCCC3)NC3CCCCC3)c2)cc1")
"19%"
>>> value_measured("Brc1cc(Br)cc(CSc2ccc(N=C(NC3CCCCC3)NC3CCCCC3)cc2)c1")
"51%"

In the following, a different compound is considered.
Item: `Brc1cc(Br)cc(CSc2cccc(N=C(NC3CCCCC3)NC3CCCCC3)c2)c1` | survival at 264 h, 50 µM: 33%

----------
For each record, write down the corresponding MFC.
# Tested on: Nakaseomyces glabratus
# Procedure Summary: Fungal activity against Candida glabrata BG2 assessed as concentration required to less than 0.1% survival of organism after 2 hrs
# Type: functional
# Test Parameters: BG2, 2 h

These recorded examples may help you get a feel for the data.
>>> value_measured("Nc1ccccc1SCc1ccc(Cl)cc1")
"> 100 µM"
>>> value_measured("OC(Cn1cncn1)(Cn1cncn1)c1ccc(F)cc1F")
"> 100 µM"

Continue with the compound presented below.
According to the records, this compound `Clc1ccc(CSc2ccc(N=C(NC3CCCCC3)NC3CCCCC3)cc2)cc1` displays MFC of > 100 µM
